# Test system: PDC KRAS tumor spheroids with HUVEC/MSC, viability;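 note: spheroids exposed to compounds for seven days before readout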
# Test details: Anticancer human tumor 349418-098-R-PDC patient-derived lung adenocarcinoma cell line growth inhibition [KRAS2]; active = viability on the fitted dose curve at most 10% of control; inactive = the rest
# Condition context: second compound 0.1 µM; first compound 10 µM
Possible outcomes: active, inactive

Compound: O=C(c1cc(Cc2n[nH]c(=O)c3ccccc23)ccc1F)N1CCN(C(=O)C2CC2)CC1 + CC1OCC2(CCN(c3cnc(Sc4ccnc(N)c4Cl)c(N)n3)CC2)C1N
Target entity: PDC KRAS tumor spheroids with HUVEC/MSC, viability;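 note: spheroids exposed to compounds for seven days before readout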
Category label: inactive

Compound: CC1(C)CCC(CN2CCN(c3ccc(C(=O)NS(=O)(=O)c4ccc(NCC5CCOCC5)c([N+](=O)[O-])c4)c(Oc4cnc5[nH]ccc5c4)c3)CC2)=C(c2ccc(Cl)cc2)C1 + COc1cc2nc(C)nc(NC(C)c3cc(N)cc(C(F)(F)F)c3)c2cc1OC1CCOC1
Target entity: PDC KRAS tumor spheroids with HUVEC/MSC, viability;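 note: spheroids exposed to compounds for seven days before readout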
Category label: active

Compound: Cn1nccc1Nc1nccc(-c2cc3c(s2)C(C)(C)N(CCN2CCOCC2)C3=O)n1 + C=CC(=O)N1CCN(c2nc(OCC3CCCN3C)nc3c2CCN(c2cccc4cccc(C)c24)C3)CC1CC#N
Target entity: PDC KRAS tumor spheroids with HUVEC/MSC, viability;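 note: spheroids exposed to compounds for seven days before readout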
Category label: active

Compound: COC(=O)c1ccc2c(C(=Nc3ccc(N(C)C(=O)CN4CCN(C)CC4)cc3)c3ccccc3)c(O)[nH]c2c1 + C=CC(=O)N1CCN(c2nc(OCC3CCCN3C)nc3c2CCN(c2cccc4cccc(C)c24)C3)CC1CC#N
Target entity: PDC KRAS tumor spheroids with HUVEC/MSC, viability;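 note: spheroids exposed to compounds for seven days before readout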
Category label: inactive

Compound: CC1OCC2(CCN(c3cnc(Sc4ccnc(N)c4Cl)c(N)n3)CC2)C1N (stereo not given) + C=CC(=O)N1CCN(c2nc(OCC3CCCN3C)nc3c2CCN(c2cccc4cccc(C)c24)C3)CC1CC#N
Target entity: PDC KRAS tumor spheroids with HUVEC/MSC, viability;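 note: spheroids exposed to compounds for seven days before readout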
Category label: inactive

Compound: CCNC(=O)CC1N=C(c2ccc(Cl)cc2)c2cc(OC)ccc2-n2c(C)nnc21 (stereo not given) + COc1cc2nc(C)nc(NC(C)c3cc(N)cc(C(F)(F)F)c3)c2cc1OC1CCOC1
Target entity: PDC KRAS tumor spheroids with HUVEC/MSC, viability;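 note: spheroids exposed to compounds for seven days before readout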
Category label: active

Compound: COc1cc2nccc(Oc3ccc(NC(=O)C4(C(=O)Nc5ccc(F)cc5)CC4)cc3)c2cc1OC + COc1cc2nc(C)nc(NC(C)c3cc(N)cc(C(F)(F)F)c3)c2cc1OC1CCOC1
Target entity: PDC KRAS tumor spheroids with HUVEC/MSC, viability;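 note: spheroids exposed to compounds for seven days before readout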
Category label: inactive

Compound: CC1(C)CCC(CN2CCN(c3ccc(C(=O)NS(=O)(=O)c4ccc(NCC5CCOCC5)c([N+](=O)[O-])c4)c(Oc4cnc5[nH]ccc5c4)c3)CC2)=C(c2ccc(Cl)cc2)C1 + CNCc1ccccc1-c1csc(C(C)Nc2nc(C)nc3cc(OC)c(OC)cc23)c1
Target entity: PDC KRAS tumor spheroids with HUVEC/MSC, viability;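 note: spheroids exposed to compounds for seven days before readout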
Category label: active

Compound: COc1cc(Nc2ncc3c(n2)-c2ccc(Cl)cc2C(c2c(F)cccc2OC)=NC3)ccc1C(=O)O + C=CC(=O)N1CCN(c2nc(OCC3CCCN3C)nc3c2CCN(c2cccc4cccc(C)c24)C3)CC1CC#N
Target entity: PDC KRAS tumor spheroids with HUVEC/MSC, viability;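 note: spheroids exposed to compounds for seven days before readout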
Category label: inactive

Compound: Cn1nccc1Nc1nccc(-c2cc3c(s2)C(C)(C)N(CCN2CCOCC2)C3=O)n1 + CNCc1ccccc1-c1csc(C(C)Nc2nc(C)nc3cc(OC)c(OC)cc23)c1
Target entity: PDC KRAS tumor spheroids with HUVEC/MSC, viability;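 note: spheroids exposed to compounds for seven days before readout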
Category label: active

Compound: COC(=O)c1ccc2c(C(=Nc3ccc(N(C)C(=O)CN4CCN(C)CC4)cc3)c3ccccc3)c(O)[nH]c2c1 + C=CC(=O)N1CCN(c2nc(=O)n(-c3c(C)ccnc3C(C)C)c3nc(-c4c(O)cccc4F)c(F)cc23)C(C)C1
Target entity: PDC KRAS tumor spheroids with HUVEC/MSC, viability;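 note: spheroids exposed to compounds for seven days before readout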
Category label: inactive

Compound: CC1OCC2(CCN(c3cnc(Sc4ccnc(N)c4Cl)c(N)n3)CC2)C1N (stereo not given) + C=CC(=O)N1CCN(c2nc(=O)n(-c3c(C)ccnc3C(C)C)c3nc(-c4c(O)cccc4F)c(F)cc23)C(C)C1
Target entity: PDC KRAS tumor spheroids with HUVEC/MSC, viability;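 note: spheroids exposed to compounds for seven days before readout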
Category label: inactive

Compound: CC(C)NCC(C(=O)N1CCN(c2ncnc3c2C(C)CC3O)CC1)c1ccc(Cl)cc1 (stereo not given) + C=CC(=O)N1CCN(c2nc(=O)n(-c3c(C)ccnc3C(C)C)c3nc(-c4c(O)cccc4F)c(F)cc23)C(C)C1
Target entity: PDC KRAS tumor spheroids with HUVEC/MSC, viability;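 note: spheroids exposed to compounds for seven days before readout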
Category label: active

Compound: O=C(c1cc(Cc2n[nH]c(=O)c3ccccc23)ccc1F)N1CCN(C(=O)C2CC2)CC1 + C=CC(=O)N1CCN(c2nc(=O)n(-c3c(C)ccnc3C(C)C)c3nc(-c4c(O)cccc4F)c(F)cc23)C(C)C1
Target entity: PDC KRAS tumor spheroids with HUVEC/MSC, viability;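 note: spheroids exposed to compounds for seven days before readout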
Category label: inactive

Compound: O=C(c1cc(Cc2n[nH]c(=O)c3ccccc23)ccc1F)N1CCN(C(=O)C2CC2)CC1 + C=CC(=O)N1CCN(c2nc(OCC3CCCN3C)nc3c2CCN(c2cccc4cccc(C)c24)C3)CC1CC#N
Target entity: PDC KRAS tumor spheroids with HUVEC/MSC, viability;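 note: spheroids exposed to compounds for seven days before readout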
Category label: inactive

Compound: COc1cc(Nc2ncc3c(n2)-c2ccc(Cl)cc2C(c2c(F)cccc2OC)=NC3)ccc1C(=O)O + COc1cc2nc(C)nc(NC(C)c3cc(N)cc(C(F)(F)F)c3)c2cc1OC1CCOC1
Target entity: PDC KRAS tumor spheroids with HUVEC/MSC, viability;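 note: spheroids exposed to compounds for seven days before readout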
Category label: inactive

Compound: CC1OCC2(CCN(c3cnc(Sc4ccnc(N)c4Cl)c(N)n3)CC2)C1N (stereo not given) + COc1cc2nc(C)nc(NC(C)c3cc(N)cc(C(F)(F)F)c3)c2cc1OC1CCOC1
Target entity: PDC KRAS tumor spheroids with HUVEC/MSC, viability;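 note: spheroids exposed to compounds for seven days before readout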
Category label: inactive

Compound: COc1cc2nccc(Oc3ccc(NC(=O)C4(C(=O)Nc5ccc(F)cc5)CC4)cc3)c2cc1OC + CNCc1ccccc1-c1csc(C(C)Nc2nc(C)nc3cc(OC)c(OC)cc23)c1
Target entity: PDC KRAS tumor spheroids with HUVEC/MSC, viability;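 note: spheroids exposed to compounds for seven days before readout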
Category label: inactive

Compound: CC1(C)CCC(CN2CCN(c3ccc(C(=O)NS(=O)(=O)c4ccc(NCC5CCOCC5)c([N+](=O)[O-])c4)c(Oc4cnc5[nH]ccc5c4)c3)CC2)=C(c2ccc(Cl)cc2)C1 + CC1OCC2(CCN(c3cnc(Sc4ccnc(N)c4Cl)c(N)n3)CC2)C1N
Target entity: PDC KRAS tumor spheroids with HUVEC/MSC, viability;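 note: spheroids exposed to compounds for seven days before readout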
Category label: active

Compound: CC(C)NCC(C(=O)N1CCN(c2ncnc3c2C(C)CC3O)CC1)c1ccc(Cl)cc1 (stereo not given) + CC1OCC2(CCN(c3cnc(Sc4ccnc(N)c4Cl)c(N)n3)CC2)C1N
Target entity: PDC KRAS tumor spheroids with HUVEC/MSC, viability;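 note: spheroids exposed to compounds for seven days before readout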
Category label: active
